cAMP production (pmol/ml/µg prt) with saturated glucagon peptide, at 1 nM overview
- target_system: human glucagon receptor (human, UniProt P47871 26-477)
- Sequence (P47871 26-477): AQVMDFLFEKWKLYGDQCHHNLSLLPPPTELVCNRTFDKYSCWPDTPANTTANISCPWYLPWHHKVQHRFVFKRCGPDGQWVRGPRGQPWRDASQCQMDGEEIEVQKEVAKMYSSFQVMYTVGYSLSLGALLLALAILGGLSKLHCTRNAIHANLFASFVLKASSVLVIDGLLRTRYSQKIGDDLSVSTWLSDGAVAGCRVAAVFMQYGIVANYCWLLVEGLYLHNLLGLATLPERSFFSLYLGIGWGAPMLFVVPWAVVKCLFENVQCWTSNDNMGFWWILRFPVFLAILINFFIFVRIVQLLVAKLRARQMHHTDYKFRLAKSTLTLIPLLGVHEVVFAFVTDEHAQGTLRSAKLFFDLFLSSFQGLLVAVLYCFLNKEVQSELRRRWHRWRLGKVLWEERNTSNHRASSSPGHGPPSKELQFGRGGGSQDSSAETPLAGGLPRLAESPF
- procedure_details: cell-based or functional assay
Where no end group is shown, it is not given here. [ ]: non-standard residue; d: D form. αMePhe(2-F) = C[C@](N)(Cc1ccccc1F)C(=O)O; αMeBip(OMe) = alpha-methylated Bip(OMe); hhPhe = N[C@@H](CCCc1ccccc1)C(=O)O; αMeP = C[C@@]1(C(=O)O)CCCN1; Aib = CC(C)(N)C(=O)O
Quick reminder: number only, in pmol/ml/µg prt, skip the unit.

binder="VVH[Aib]EGTFTSD[αMeBip(OMe)][hhPhe] (not fully specified (C-terminus); printed as VVH-Aib-EGTFTSD-(αMe-Bip(OMe))-(APPA)) [Seq. ID. No. 211]" result=6

Tell me the measured cAMP production (pmol/ml/µg prt) with saturated glucagon peptide, at 1 nM of VVHSEGTFTSD[αMeBip(OMe)][hhPhe] (not fully specified (C-terminus); printed as VVHSEGTFTSD-(αMe-Bip(OMe))-(APPA)) [Seq. ID. No. 209] , please. 0

// same read-out, input: VVH[αMeP]QGT[αMePhe(2-F)]TSD[αMeBip(OMe)][hhPhe]-NH2 [Seq. ID. No. 216] 0
